Species on record: Rattus norvegicus
measurementProtocol: Open TG-GATES - Regimen: Single
Type: toxicity, organism-based, Sprague-Dawley
Set-up: regimen Single, gender Male, age 6 weeks
particulars: in vivo, po, 0 mg/kg, 3 h, tissue Plasma, route gavage, dose level Control
Entries are grouped by TBIL into these classes: zone 1 (below 0.02 mg/dL), zone 2 (0.02 mg/dL to below 0.06 mg/dL), zone 3 (0.06 mg/dL or more)

| compound | class |
| --- | --- |
| Cc1cccc(C)c1OCC(C)N (centres undefined) [MEXILETINE] | zone 1 |
| C[C@H]1C(=O)O[C@@H]2CCN3CC=C(COC(=O)[C@](C)(O)[C@]1(C)O)[C@H]23 [MONOCROTALINE] | zone 2 |
| CCOC(=O)C(C)(C)Oc1ccc(Cl)cc1 [CLOFIBRATE] | zone 3 |
| C=C(C)[C@H]1Cc2c(ccc3c2O[C@@H]2COc4cc(OC)c(OC)cc4[C@@H]2C3=O)O1 [ROTENONE] | zone 2 |

Req: # classify by TBIL band: O=[N+]([O-])c1ccc(O)c([N+](=O)[O-])c1 [2,4-DINITROPHENOL]
Resp: zone 2

Req: # classify by TBIL band: OCCN1CCN(CCCN2c3ccccc3Sc3ccc(C(F)(F)F)cc32)CC1 [FLUPHENAZINE]
Resp: zone 3

Req: # classify by TBIL band: Cc1ccc2cc3c(ccc4ccccc43)c3c2c1CC3 [3-METHYLCHOLANTHRENE]
Resp: zone 1

====

Species: Rattus norvegicus
measurementProtocol: Open TG-GATES - Regimen: Single
Type: toxicity, organism-based, Sprague-Dawley
Parameters: regimen Single, gender Male, age 6 weeks
particulars: in vivo, po, 0 mg/kg, 24 h, tissue Blood, route gavage, dose level Control
experimentalReadout: MCV (fL)
# unit: fL | format: bare number

Req: Item CCOC(=O)C(C)(C)Oc1ccc(Cl)cc1 [CLOFIBRATE] has what recorded MCV?
Resp: 60

====

MCV for assorted molecules
Species: Rattus norvegicus
measurementProtocol: Open TG-GATES - Regimen: Single
Assay type: toxicity, organism-based, Sprague-Dawley
Set-up: regimen Single, gender Male, age 6 weeks
particulars: in vivo, po, 0 mg/kg, 3 h, tissue Blood, route gavage, dose level Control
# unit: fL | format: bare number

Sample records with MCV:
| molecule | experimentalReadout | numericResult |
| --- | --- | --- |
| CCOC(=O)C(C)(C)Oc1ccc(Cl)cc1 [CLOFIBRATE] | MCV | 61.6 |
| Cc1ccc2cc3c(ccc4ccccc43)c3c2c1CC3 | MCV | 63.7 |
| O=[N+]([O-])c1ccc(O)c([N+](=O)[O-])c1 | MCV | 64.4 |
| Cc1cccc(C)c1OCC(C)N (centres undefined) | MCV | 64.8 |
| OCCN1CCN(CCCN2c3ccccc3Sc3ccc(C(F)(F)F)cc32)CC1 | MCV | 64.3 |
| C[C@H]1O[C@H](O[C@H]2[C@H](O)[C@@H](O)[C@@H](O[C@H]3[C@H](O)[C@@H](O)C(O)O[C@@H]3CO)O[C@@H]2CO)[C@H](O)[C@@H](O)[C@@H]1N[C@H]1C=C(CO)[C@@H](O)[C@H](O)[C@H]1O (some centres undefined) | MCV | 63.7 |

Req: Item Cn1cc[nH]c1=S has what recorded MCV?
Resp: 63.5

Req: Item C=C(C)[C@H]1Cc2c(ccc3c2O[C@@H]2COc4cc(OC)c(OC)cc4[C@@H]2C3=O)O1 has what recorded MCV?
Resp: 63.7

Req: Item C[C@H]1C(=O)O[C@@H]2CCN3CC=C(COC(=O)[C@](C)(O)[C@]1(C)O)[C@H]23 has what recorded MCV?
Resp: 63.8

====

Organism: Rattus norvegicus
measurementProtocol: Open TG-GATES - Regimen: Daily Repeat
Format: toxicity, organism-based, Sprague-Dawley
Set-up: regimen Daily Repeat, gender Male, age 6 weeks
particulars: in vivo, po, 0 mg/kg, […], tissue Blood, route gavage, dose level Control, time 7 day
MCV for assorted compounds
# unit: fL | format: bare number

| compound | resultUnit | numericResult |
| --- | --- | --- |
| Cn1cc[nH]c1=S | fL | 60.9 |
| CCOC(=O)C(C)(C)Oc1ccc(Cl)cc1 [CLOFIBRATE] | fL | 60.8 |
| O=C1CN(/N=C/c2ccc([N+](=O)[O-])o2)C(=O)N1 | fL | 61.2 |
| Cc1cccc(C)c1OCC(C)N (centres undefined) | fL | 62.4 |
| O=[N+]([O-])c1ccc(O)c([N+](=O)[O-])c1 | fL | 63.4 |
| C[C@H]1O[C@H](O[C@H]2[C@H](O)[C@@H](O)[C@@H](O[C@H]3[C@H](O)[C@@H](O)C(O)O[C@@H]3CO)O[C@@H]2CO)[C@H](O)[C@@H](O)[C@@H]1N[C@H]1C=C(CO)[C@@H](O)[C@H](O)[C@H]1O (some centres undefined) | fL | 63.9 |
| C[C@H]1C(=O)O[C@@H]2CCN3CC=C(COC(=O)[C@](C)(O)[C@]1(C)O)[C@H]23 | fL | 60.2 |
| C=C(C)[C@H]1Cc2c(ccc3c2O[C@@H]2COc4cc(OC)c(OC)cc4[C@@H]2C3=O)O1 | fL | 64.3 |

Req: Item OCCN1CCN(CCCN2c3ccccc3Sc3ccc(C(F)(F)F)cc32)CC1 has what recorded MCV?
Resp: 64.4

====

Organism: Rattus norvegicus
measurementProtocol: Open TG-GATES - Regimen: Single
Type: toxicity, organism-based, Sprague-Dawley
Parameters: regimen Single, gender Male, age 6 weeks
particulars: in vivo, po, 0 mg/kg, 24 h, tissue Plasma, route gavage, dose level Control
experimentalReadout: BUN (mg/dL)
# unit: mg/dL | format: bare number

| molecule | resultUnit | BUN |
| --- | --- | --- |
| CCOC(=O)C(C)(C)Oc1ccc(Cl)cc1 [CLOFIBRATE] | mg/dL | 14.4 |
| OCCN1CCN(CCCN2c3ccccc3Sc3ccc(C(F)(F)F)cc32)CC1 [FLUPHENAZINE] | mg/dL | 18.8 |
| C[C@H]1C(=O)O[C@@H]2CCN3CC=C(COC(=O)[C@](C)(O)[C@]1(C)O)[C@H]23 [MONOCROTALINE] | mg/dL | 18.4 |
| O=[N+]([O-])c1ccc(O)c([N+](=O)[O-])c1 [2,4-DINITROPHENOL] | mg/dL | 17 |
| Cc1ccc2cc3c(ccc4ccccc43)c3c2c1CC3 [3-METHYLCHOLANTHRENE] | mg/dL | 13.8 |

Req: Item Cn1cc[nH]c1=S [METHIMAZOLE] has what recorded BUN?
Resp: 15.8

Req: Item C[C@H]1O[C@H](O[C@H]2[C@H](O)[C@@H](O)[C@@H](O[C@H]3[C@H](O)[C@@H](O)C(O)O[C@@H]3CO)O[C@@H]2CO)[C@H](O)[C@@H](O)[C@@H]1N[C@H]1C=C(CO)[C@@H](O)[C@H](O)[C@H]1O (some centres undefined) [ACARBOSE] has what recorded BUN?
Resp: 14.2

Req: Item C=C(C)[C@H]1Cc2c(ccc3c2O[C@@H]2COc4cc(OC)c(OC)cc4[C@@H]2C3=O)O1 [ROTENONE] has what recorded BUN?
Resp: 18

Req: Item Cc1cccc(C)c1OCC(C)N (centres undefined) [MEXILETINE] has what recorded BUN?
Resp: 15.6

====

Species on record: Rattus norvegicus
measurementProtocol: Open TG-GATES - Regimen: Single
Assay type: toxicity, organism-based, Sprague-Dawley
Parameters: regimen Single, gender Male, age 6 weeks
particulars: in vivo, po, 0 mg/kg, 24 h, tissue Blood, route gavage, dose level Control
experimentalReadout: WBC (x10_2/uL)
# unit: x10_2/uL | format: bare number

Sample records with WBC:
| compound | WBC (x10_2/uL) |
| --- | --- |
| O=[N+]([O-])c1ccc(O)c([N+](=O)[O-])c1 | 106.6 |
| Cc1ccc2cc3c(ccc4ccccc43)c3c2c1CC3 | 100 |
| CCOC(=O)C(C)(C)Oc1ccc(Cl)cc1 [CLOFIBRATE] | 75.3 |
| C=C(C)[C@H]1Cc2c(ccc3c2O[C@@H]2COc4cc(OC)c(OC)cc4[C@@H]2C3=O)O1 | 108.8 |
| C[C@H]1C(=O)O[C@@H]2CCN3CC=C(COC(=O)[C@](C)(O)[C@]1(C)O)[C@H]23 | 85.2 |

Req: Item Cc1cccc(C)c1OCC(C)N (centres undefined) has what recorded WBC?
Resp: 88.8

Req: Item C[C@H]1O[C@H](O[C@H]2[C@H](O)[C@@H](O)[C@@H](O[C@H]3[C@H](O)[C@@H](O)C(O)O[C@@H]3CO)O[C@@H]2CO)[C@H](O)[C@@H](O)[C@@H]1N[C@H]1C=C(CO)[C@@H](O)[C@H](O)[C@H]1O (some centres undefined) has what recorded WBC?
Resp: 81.7

Req: Item OCCN1CCN(CCCN2c3ccccc3Sc3ccc(C(F)(F)F)cc32)CC1 has what recorded WBC?
Resp: 137.9

Req: Item Cn1cc[nH]c1=S has what recorded WBC?
Resp: 97.4
